Cited source for all entries: the array DNA melting data of Ke et al. (doi:10.1101/2024.01.08.574731)

Parameter folding enthalpy: see the listing below.
Assay: folding enthalpy; higher = less favourable; fluorescence melt of hairpins on a sequencing array, two-state fit
Conditions: sodium 0.088 M
recorded-endpoint: folding enthalpy (kcal/mol)

{"sequence-text": "GTGAGGCCGAAAGGCCAC (((..(((....))))))", "val": -11.7}
{"sequence-text": "GTGAAACCGAAAGGTCAC (((..(((....))))))", "val": -20.4}
{"sequence-text": "GGGACCGAAAGGTGCCC ((((((....))).)))", "val": -17.7}
{"sequence-text": "GGTAATGGAAACATCACC (((.(((....))).)))", "val": -18.2}
{"sequence-text": "GCGAAGCGAAAGCATCGC ((((.((....)).))))", "val": -17.4}
{"sequence-text": "GTCACCGAAAGGTTCGAC ((((((....)))..)))", "val": -14.9}
{"sequence-text": "GACCAGGGAAACCCGGTC ((((.((....)).))))", "val": -37.7}
{"sequence-text": "GAGACTGGAAACAGTCTC (((((((....)))))))", "val": -40.3}
{"sequence-text": "GGCCATCGAAAGATGCC (((.(((....))))))", "val": -19.8}
{"sequence-text": "GGGTCCCCGAAAGGGCCC (((..(((....))))))", "val": -23.1}
{"sequence-text": "GCGGACGAAAGTCTCCGC ((((((....)))..)))", "val": -25.7}
{"sequence-text": "GAAAGTGAAAACTTTC ((((((....))))))", "val": -27.2}
